tested on: NCI-H1975; experiment: Anticancer activity against human NCI-H1975 cells assessed as inhibition of cell growth at 10 uM measured by SRB method; type: functional
parameter measured: inhibition at 10 µM (%)
Write the number in % without appending the unit.

// solved cases for inhibition at 10 µM follow
compound="CN(C)c1ccc(C2CC(c3ccc(-n4cncn4)cc3)=NN2C(=O)c2ccc(F)cc2)cc1 (centres undefined)" result=-1.1
compound="CN1CCN(c2ccc(C3=NN(S(=O)(=O)c4ccc(C#N)cc4)C(c4ccc(N(C)C)cc4)C3)cc2)CC1 (centres undefined)" result=100
compound="CC(=O)N1N=C(c2ccc(-n3cncn3)cc2)CC1c1ccc(N(C)C)cc1 (centres undefined)" result=-0.3
compound="CN(C)c1ccc(C2CC(c3ccc(-n4ccnc4)cc3)=NN2C(=O)c2ccc(F)cc2)cc1 (centres undefined)" result=-3.5
compound="CN(C)c1ccc(C2CC(c3ccc(-n4ccnc4)cc3)=NN2C(=O)c2ccc(C(F)(F)F)cc2)cc1 (centres undefined)" result=15
compound="CN(C)c1ccc(C2CC(c3ccc(-n4cncn4)cc3)=NN2S(=O)(=O)c2ccc(C#N)cc2)cc1 (centres undefined)" result=22.6
compound="CN(C)c1ccc(C2CC(c3ccc(-n4ccnc4)cc3)=NN2S(=O)(=O)c2ccc(C#N)cc2)cc1 (centres undefined)" result=0.7
compound="COC(=O)CC(=O)N1N=C(c2ccc(-n3cncn3)cc2)CC1c1ccc(N(C)C)cc1 (centres undefined)" result=1.5

Query compound follows.
Request: What value of inhibition at 10 µM has been recorded for this entry: Cc1ccc(C(=O)N2N=C(c3ccc(N4CCN(C)CC4)cc3)CC2c2ccc(N(C)C)cc2)cc1 (centres undefined)
Result: -0.4

* * *

tested on: MDA-MB-231; assay: Anticancer activity against human MDA-MB-231 cells assessed as inhibition of cell growth at 10 uM measured by SRB method; assay type: functional
parameter measured: inhibition at 10 µM (%)
Write the number in % without appending the unit.

molecule="COC(=O)CC(=O)N1N=C(c2ccc(N3CCN(C)CC3)cc2)CC1c1ccc(N(C)C)cc1 (stereo unspecified)" result=-0.4

Request: Field: inhibition at 10 µM (MDA-MB-231). Entry: CN1CCN(c2ccc(C3=NN(S(=O)(=O)C4CC4)C(c4ccc(N(C)C)cc4)C3)cc2)CC1 (stereo unspecified)
Result: 3.7

Request: Field: inhibition at 10 µM (MDA-MB-231). Entry: CN(C)c1ccc(C2CC(c3ccc(-n4cncn4)cc3)=NN2C(=O)c2cc(Cl)cc(Cl)c2)cc1 (stereo unspecified)
Result: 9.4

Request: Field: inhibition at 10 µM (MDA-MB-231). Entry: CN(C)c1ccc(C2CC(c3ccc(-n4ccnc4)cc3)=NN2S(C)(=O)=O)cc1 (stereo unspecified)
Result: 12

Request: Field: inhibition at 10 µM (MDA-MB-231). Entry: CN(C)c1ccc(C2CC(c3ccc(-n4ccnc4)cc3)=NN2C(=O)CCCl)cc1 (stereo unspecified)
Result: 2.1

Request: Field: inhibition at 10 µM (MDA-MB-231). Entry: CN(C)c1ccc(C2CC(c3ccc(-n4ccnc4)cc3)=NN2)cc1 (stereo unspecified)
Result: 7.6

Request: Field: inhibition at 10 µM (MDA-MB-231). Entry: CN(C)c1ccc(C2CC(c3ccc(-n4ccnc4)cc3)=NN2C(=O)c2cc(Cl)cc(Cl)c2)cc1 (stereo unspecified)
Result: 48.8

Request: Field: inhibition at 10 µM (MDA-MB-231). Entry: CN(C)c1ccc(C2CC(c3ccc(-n4ccnc4)cc3)=NN2S(=O)(=O)c2ccc(C#N)cc2)cc1 (stereo unspecified)
Result: 7.1

Request: Field: inhibition at 10 µM (MDA-MB-231). Entry: CN(C)c1ccc(C2CC(c3ccc(-n4cncn4)cc3)=NN2S(=O)(=O)c2ccc(F)cc2)cc1 (stereo unspecified)
Result: 12.1

Request: Field: inhibition at 10 µM (MDA-MB-231). Entry: Cc1ccc(S(=O)(=O)N2N=C(c3ccc(N4CCN(C)CC4)cc3)CC2c2ccc(N(C)C)cc2)cc1 (stereo unspecified)
Result: 10.7

Request: Field: inhibition at 10 µM (MDA-MB-231). Entry: Cc1ccc(S(=O)(=O)N2N=C(c3ccc(-n4cncn4)cc3)CC2c2ccc(N(C)C)cc2)cc1 (stereo unspecified)
Result: 20.7

* * *

tested on: NCI-H1975; assay: Anticancer activity against human NCI-H1975 cells assessed as inhibition of cell growth at 10 uM measured by SRB method; type: functional
Catalogue of inhibition at 10 µM values
Write the number in % without appending the unit.

Request: What value of inhibition at 10 µM has been recorded for this entry: CN1CCN(c2ccc(C3=NN(C(=O)c4ccc(C(F)(F)F)cc4)C(c4ccc(N(C)C)cc4)C3)cc2)CC1 (stereo not given)
Result: 93.2

Request: What value of inhibition at 10 µM has been recorded for this entry: CN(C)c1ccc(C2CC(c3ccc(-n4ccnc4)cc3)=NN2C(=O)CCCl)cc1 (stereo not given)
Result: -2.5

Request: What value of inhibition at 10 µM has been recorded for this entry: CN1CCN(c2ccc(C3=NN(C(=O)CCCl)C(c4ccc(N(C)C)cc4)C3)cc2)CC1 (stereo not given)
Result: -0.2

Request: What value of inhibition at 10 µM has been recorded for this entry: Cc1ccc(S(=O)(=O)N2N=C(c3ccc(-n4cncn4)cc3)CC2c2ccc(N(C)C)cc2)cc1 (stereo not given)
Result: 20

Request: What value of inhibition at 10 µM has been recorded for this entry: CN1CCN(c2ccc(C3=NN(S(=O)(=O)c4ccc(F)cc4)C(c4ccc(N(C)C)cc4)C3)cc2)CC1 (stereo not given)
Result: 95.7

* * *

test system: NCI-H1975; experiment: Anticancer activity against human NCI-H1975 cells assessed as inhibition of cell growth at 10 uM measured by SRB method; assay type: functional
Catalogue of inhibition at 10 µM values
Write the number in % without appending the unit.

Request: What value of inhibition at 10 µM has been recorded for this entry: CN1CCN(c2ccc(C3=NN(C(=O)Cc4ccccc4)C(c4ccc(N(C)C)cc4)C3)cc2)CC1 (stereo not given)
Result: -2.8

Request: What value of inhibition at 10 µM has been recorded for this entry: CN1CCN(c2ccc(C3=NN(S(=O)(=O)c4ccc(Br)cc4)C(c4ccc(N(C)C)cc4)C3)cc2)CC1 (stereo not given)
Result: 70.8

* * *

tested on: MDA-MB-231; test: Anticancer activity against human MDA-MB-231 cells assessed as inhibition of cell growth at 10 uM measured by SRB method; assay type: functional
Catalogue of inhibition at 10 µM values

molecule="CN(C)c1ccc(C2CC(c3ccc(-n4ccnc4)cc3)=NN2S(=O)(=O)c2ccc([N+](=O)[O-])cc2)cc1 (stereo unspecified)" parameter_measured="inhibition at 10 µM" result=41.5%
molecule="CN(C)c1ccc(C2CC(c3ccc(-n4cncn4)cc3)=NN2C(=O)c2ccc(F)cc2)cc1 (stereo unspecified)" parameter_measured="inhibition at 10 µM" result=12.5%
molecule="CN1CCN(c2ccc(C3=NN(C(=O)c4ccc(F)cc4)C(c4ccc(N(C)C)cc4)C3)cc2)CC1 (stereo unspecified)" parameter_measured="inhibition at 10 µM" result=3.5%

Request: What value of inhibition at 10 µM has been recorded for this entry: CC(=O)N1N=C(c2ccc(N3CCN(C)CC3)cc2)CC1c1ccc(N(C)C)cc1 (stereo unspecified)
Result: -1%

Request: What value of inhibition at 10 µM has been recorded for this entry: CN1CCN(c2ccc(C3=NN(S(C)(=O)=O)C(c4ccc(N(C)C)cc4)C3)cc2)CC1 (stereo unspecified)
Result: 0.6%

Request: What value of inhibition at 10 µM has been recorded for this entry: CN(C)c1ccc(C2CC(c3ccc(-n4cncn4)cc3)=NN2)cc1 (stereo unspecified)
Result: 7%

Request: What value of inhibition at 10 µM has been recorded for this entry: CN(C)c1ccc(C2CC(c3ccc(-n4cncn4)cc3)=NN2C(=O)c2ccc(C(F)(F)F)cc2)cc1 (stereo unspecified)
Result: 16.7%

Request: What value of inhibition at 10 µM has been recorded for this entry: CN1CCN(c2ccc(C3=NN(C(=O)CCCl)C(c4ccc(N(C)C)cc4)C3)cc2)CC1 (stereo unspecified)
Result: 2.4%

Request: What value of inhibition at 10 µM has been recorded for this entry: C=C(C)C(=O)N1N=C(c2ccc(-n3ccnc3)cc2)CC1c1ccc(N(C)C)cc1 (stereo unspecified)
Result: 4.3%

Request: What value of inhibition at 10 µM has been recorded for this entry: CC(=O)N1N=C(c2ccc(-n3cncn3)cc2)CC1c1ccc(N(C)C)cc1 (stereo unspecified)
Result: 7.4%

* * *

Catalogue of inhibition at 10 µM values
system: NCI-H1975; experiment: Anticancer activity against human NCI-H1975 cells assessed as inhibition of cell growth at 10 uM measured by SRB method; format: functional
Write the number in % without appending the unit.

// solved cases for inhibition at 10 µM follow
compound="CN(C)c1ccc(C2CC(c3ccc(-n4cncn4)cc3)=NN2S(=O)(=O)c2ccc(F)cc2)cc1 (stereo not drawn)" result=-0.5
compound="CN(C)c1ccc(C2CC(c3ccc(-n4cncn4)cc3)=NN2S(=O)(=O)c2ccc(OC(F)(F)F)cc2)cc1 (stereo not drawn)" result=11.1
compound="COC(=O)CC(=O)N1N=C(c2ccc(-n3ccnc3)cc2)CC1c1ccc(N(C)C)cc1 (stereo not drawn)" result=-0.1
compound="Cc1ccc(S(=O)(=O)N2N=C(c3ccc(-n4ccnc4)cc3)CC2c2ccc(N(C)C)cc2)cc1 (stereo not drawn)" result=50.5
compound="CN(C)c1ccc(C2CC(c3ccc(-n4cncn4)cc3)=NN2C(=O)CCCl)cc1 (stereo not drawn)" result=-0.7
compound="CN(C)c1ccc(C2CC(c3ccc(-n4cncn4)cc3)=NN2C(=O)/C=C/c2ccccc2)cc1 (stereo not drawn)" result=-2.3
compound="CN1CCN(c2ccc(C3=NN(S(=O)(=O)c4ccc(C(F)(F)F)cc4)C(c4ccc(N(C)C)cc4)C3)cc2)CC1 (stereo not drawn)" result=18.9

Query compound follows.
Request: Field: inhibition at 10 µM (NCI-H1975). Entry: CN(C)c1ccc(C2CC(c3ccc(-n4ccnc4)cc3)=NN2S(C)(=O)=O)cc1 (stereo not drawn)
Result: -3.8

The reported measurements were obtained from ChEMBL document CHEMBL4808195.
